TARGET_DESC: 5-hydroxytryptamine receptor 1A (Homo sapiens) (UniProt P08908)
PROTOCOL: Ability to antagonize electrical induced contractile responses in Guinea pig ileum for 5-HT1A receptor.
Assay type: tissue-based
EXPERIMENTAL_PARAMETERS: Cavia porcellus, target entry is the homologue from another species
PROPERTY_NAME: ED50 (µM)
Give just the number in µM; leave the unit off.

Some compounds with known ED50 results, for comparison:
[[record]]
compound = "COc1cc2c(cc1C)CC1c3c(cccc3-2)CCN1C (stereo in doubt; (-)-9)"
result_value = 2.6

[[record]]
compound = "COc1cc2c(cc1C)-c1cccc3c1C(C2)N(C)CC3 (single isomer, unassigned; (-))"
result_value = 5

[[record]]
compound = "COc1cc2c(cc1C)CC1c3c(cccc3-2)CCN1C (stereo in doubt; (+)-9)"
result_value = 5.9

[[record]]
compound = "COc1cc2c(cc1C)-c1cccc3c1C(C2)N(C)CC3 (single isomer, unassigned; (+))"
result_value = 5.4


Proceed to the following item.
Prompt: Reported ED50, compound Cc1ccc2c(c1O)-c1cccc3c1[C@@H](C2)N(C)CC3 : ____
Response: 0.05

====

TARGET_DESC: 5-hydroxytryptamine receptor 1A (Homo sapiens) (UniProt P08908)
Sequence (whole entry): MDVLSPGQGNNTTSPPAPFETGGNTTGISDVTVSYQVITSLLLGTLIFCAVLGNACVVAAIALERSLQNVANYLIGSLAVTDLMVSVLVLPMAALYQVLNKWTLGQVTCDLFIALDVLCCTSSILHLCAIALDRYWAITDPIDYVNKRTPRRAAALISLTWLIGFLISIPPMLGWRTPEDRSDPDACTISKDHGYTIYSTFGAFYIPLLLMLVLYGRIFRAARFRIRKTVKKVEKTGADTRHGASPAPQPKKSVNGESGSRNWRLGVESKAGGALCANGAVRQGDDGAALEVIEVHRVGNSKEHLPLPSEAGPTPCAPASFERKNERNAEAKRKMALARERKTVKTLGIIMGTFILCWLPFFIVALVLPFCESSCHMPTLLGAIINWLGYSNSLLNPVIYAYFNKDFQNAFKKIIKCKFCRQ
PROTOCOL: Ability to antagonize Acetylcholine induced contractile responses in Guinea pig ileum for 5-HT1A receptor.
Format: tissue-based
EXPERIMENTAL_PARAMETERS: Cavia porcellus, target entry is the homologue from another species
The entries below come with measured ED50 values attached.

[[record]]
molecule = "COc1cc2c(cc1C)CC1c3c(cccc3-2)CCN1C (stereo in doubt; (+)-9)"
property_name = "ED50"
result_value = "36.6 µM"

[[record]]
molecule = "COc1cc2c(cc1C)-c1cccc3c1C(C2)N(C)CC3 (single isomer, unassigned; (+))"
property_name = "ED50"
result_value = "24.9 µM"


Prompt: Reported ED50, molecule COc1cc2c(cc1C)-c1cccc3c1C(C2)N(C)CC3 (single isomer, unassigned; (-)) : ____
Response: 2.7 µM

Prompt: Reported ED50, molecule COc1cc2c(cc1C)CC1c3c(cccc3-2)CCN1C (stereo in doubt; (-)-9) : ____
Response: 11.4 µM
